Origin of values: PubChem BioAssay AID2060338

- Tested on: 556581-035-R-J1-PDC spheroids with HUVEC/MSC, viability;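 note: spheroids exposed to compounds for 7 days before readout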
- procedure_text: Anticancer human tumor 556581-035-R-J1-PDC patient-derived ovarian carcinoma cell line growth inhibition [IpAb]
- test_settings: second compound 0.316 µM; first compound 3 µM; active compounds read low
quantity: viability, T/C (%)

INSERT INTO assay_data (compound, quantity, readout_number) VALUES
  ('CC(C)(C)c1cnc(CSc2cnc(NC(=O)C3CCNCC3)s2)o1 + CC(C)NCC(C(=O)N1CCN(c2ncnc3c2C(C)CC3O)CC1)c1ccc(Cl)cc1', 'viability, T/C', 3.48),
  ('CC(C)(C)c1cnc(CSc2cnc(NC(=O)C3CCNCC3)s2)o1 + CCN1CCN(Cc2ccc(Nc3ncc(F)c(-c4cc(F)c5nc(C)n(C(C)C)c5c4)n3)nc2)CC1', 'viability, T/C', 3.38),
  ('Cn1cnc2c(F)c(Nc3ccc(Br)cc3Cl)c(C(=O)NOCCO)cc21 + CC(C)NCC(C(=O)N1CCN(c2ncnc3c2C(C)CC3O)CC1)c1ccc(Cl)cc1', 'viability, T/C', 14.2),
  ('Cn1cnc2c(F)c(Nc3ccc(Br)cc3Cl)c(C(=O)NOCCO)cc21 + CCN1CCN(Cc2ccc(Nc3ncc(F)c(-c4cc(F)c5nc(C)n(C(C)C)c5c4)n3)nc2)CC1', 'viability, T/C', 22.4);
